# Read-out: adenosine kinase (ADK) gene, ADK (gene 132)
# EXPERIMENT: LTEA_HepaRG_ADK: Life Technologies and Expression Analysis (LTEA) Assay for adenosine kinase (ADK) gene using HepaRG (AID 2283471)
# CONDITION_DESCRIPTION: mRNA level, 48 h; actives raise or lower the signal
Activity calls are given as the source filed them. How the source made its calls: active means hit-call score of the fitted dose curve at least 0.9, where 1 is the maximum; inactive means score below 0.9.
# output must be one of yes = active, no = inactive

COMPOUND	CLASS_LABEL
COC(=O)N(C(=O)N1CO[C@@]2(C(=O)OC)Cc3cc(Cl)ccc3C2=N1)c1ccc(OC(F)(F)F)cc1	no
CC(C)NC(=O)N1CC(=O)N(c2cc(Cl)cc(Cl)c2)C1=O	no
CCOc1nc(F)cc2nc(S(=O)(=O)Nc3c(Cl)cccc3Cl)nn12	yes
COc1cc(OC)nc(NC(=O)NS(=O)(=O)c2ncccc2OCC(F)(F)F)n1	no
CCCCC(C#N)(Cn1cncn1)c1ccc(Cl)cc1 (stereo unspecified)	no
CCCCC(O)(Cn1cncn1)c1ccc(Cl)cc1Cl (stereo unspecified)	no
Cc1c(COC(=O)[C@@H]2[C@H](/C=C(\Cl)C(F)(F)F)C2(C)C)cccc1-c1ccccc1	no
O=c1n(Cl)c(=O)n(Cl)c(=O)n1Cl	no
COc1cc(Cl)c(OC)cc1Cl	no
CCOP(=O)(OCC)Oc1nc(Cl)c(Cl)cc1Cl	no

Then this compound:
(Q) Hi team, can someone confirm the assay call for COC(=O)NS(=O)(=O)c1ccc(N)cc1 ?
(A) no

---

# MEASURED_TARGET: human Matrix Metalloproteinase-7 (MMP7), MMP7 (gene 4316) (UniProt P09237)
# Sequence (P09237 whole entry, looked up): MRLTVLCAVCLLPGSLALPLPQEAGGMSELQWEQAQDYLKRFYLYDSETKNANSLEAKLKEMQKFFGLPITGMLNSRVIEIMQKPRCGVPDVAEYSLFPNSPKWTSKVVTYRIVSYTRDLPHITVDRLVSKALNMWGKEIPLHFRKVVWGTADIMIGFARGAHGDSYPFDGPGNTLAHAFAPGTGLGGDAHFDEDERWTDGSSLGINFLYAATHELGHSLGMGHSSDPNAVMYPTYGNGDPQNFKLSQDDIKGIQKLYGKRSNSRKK
# EXPERIMENT: NVS_ENZ_hMMP7: NovaScreen (NVS) Enzymatic Assay for human Matrix Metalloproteinase-7 (MMP7) (AID 2283183)
Inconclusive results are not listed. Calls of active or inactive are those of the source. Rule for the calls: active = hit-call score of the fitted dose curve at least 0.9, where 1 is the maximum; inconclusive = response in the unintended direction; inactive = score below 0.9.
# output must be one of yes = active, no = inactive

Below, 3 compounds whose answers are already recorded.
COMPOUND	CLASS_LABEL
CC(C)=CC1C(C(=O)OCc2coc(Cc3ccccc3)c2)C1(C)C (centres undefined)	yes
Clc1nc(Cl)nc(Nc2ccccc2Cl)n1	yes
CCN(CC)c1nc(C)cc(OP(=S)(OC)OC)n1	no

Then this compound:
(Q) Hi team, can someone confirm the assay call for N#CN=C1SCCN1Cc1ccc(Cl)nc1 ?
(A) no

---

# Read-out: Vascular cell adhesion molecule 1 (VCAM1), VCAM1 (gene 7412)
# EXPERIMENT: BSK_4H_VCAM1: BioMAP Diversity Plus: 4H Assay for Vascular cell adhesion molecule 1 (VCAM1) Biomarker Activity (AID 2283033);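 further: cell-surface VCAM-1 protein measured by ELISA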
# CONDITION_DESCRIPTION: primary human endothelial cells (HUVEC); actives raise or lower the signal
Active and inactive are the calls of the source. How the source made its calls: active means hit-call score of the fitted dose curve at least 0.9, where 1 is the maximum; inactive means score below 0.9.
# output must be one of t (active), f (inactive)

COMPOUND	CLASS_LABEL
CCNP(=S)(OC)O/C(C)=C/C(=O)OC(C)C (configuration not stated)	f
COC(=O)NS(=O)(=O)c1ccc(N)cc1	f
CC1(C)C(C(=O)OC(C#N)c2cccc(Oc3ccccc3)c2)C1(C)C (configuration not stated)	f

(Q) Hi team, can someone confirm the assay call for CS(=O)(=O)c1ccc(C(=O)C2C(=O)CCCC2=O)c([N+](=O)[O-])c1 ?
(A) f

(Q) Hi team, can someone confirm the assay call for CNC(=O)N(C)c1nnc(C(C)(C)C)s1 ?
(A) f

(Q) Hi team, can someone confirm the assay call for Clc1nc(Cl)nc(Nc2ccccc2Cl)n1 ?
(A) f

---

# Read-out: Cytochrome P450 7A1 (Homo sapiens)
# EXPERIMENT: LTEA_HepaRG_CYP7A1: Life Technologies and Expression Analysis (LTEA) Assay for Cytochrome P450 7A1 (CYP7A1) using HepaRG (AID 2283496)
# CONDITION_DESCRIPTION: mRNA level, 48 h; actives raise or lower the signal
Calls of active or inactive are those of the source. How the source made its calls: active means hit-call score of the fitted dose curve at least 0.9, where 1 is the maximum; inactive means score below 0.9.
# output must be one of YES for active, NO for inactive

Below, 4 compounds whose answers are already recorded.
COMPOUND	CLASS_LABEL
CC1(C)C(C(=O)OC(C#N)c2cccc(Oc3ccccc3)c2)C1(C)C (stereo unspecified)	NO
CCOC(=O)C(C)OC(=O)c1cc(Oc2ccc(C(F)(F)F)cc2Cl)ccc1[N+](=O)[O-] (stereo unspecified)	YES
CCC(C)n1c(=O)[nH]c(C)c(Br)c1=O (stereo unspecified)	YES
C=C(C)CN(CC)c1c([N+](=O)[O-])cc(C(F)(F)F)cc1[N+](=O)[O-]	NO

Then this compound:
(Q) Hi team, can someone confirm the assay call for CCN(CC)c1nc(C)cc(OP(=S)(OC)OC)n1 ?
(A) NO

---

# Read-out: Monocyte Chemoattractant Protein-1 (MCP1), CCL2 (gene 6347)
# EXPERIMENT: BSK_4H_MCP1: BioMAP Diversity Plus: 4H Assay for Monocyte Chemoattractant Protein-1 (MCP1) Biomarker Activity (AID 2283018)
# CONDITION_DESCRIPTION: primary human endothelial cells (HUVEC); actives raise or lower the signal
The source made the active and inactive calls. Rule for the calls: active = hit-call score of the fitted dose curve at least 0.9, where 1 is the maximum; inactive = score below 0.9.
# output must be one of Y (active), N (inactive)

Below, 3 molecules whose answers are already recorded.
MOLECULE	CLASS_LABEL
Nc1cnn(-c2ccccc2)c(=O)c1Cl	N
COC(=O)N(C(=O)N1CO[C@@]2(C(=O)OC)Cc3cc(Cl)ccc3C2=N1)c1ccc(OC(F)(F)F)cc1	Y
COC(=O)NS(=O)(=O)c1ccc(N)cc1	N

Then this molecule:
(Q) Hi team, can someone confirm the assay call for COCC(C)N(C(=O)CCl)c1c(C)csc1C (centres undefined) ?
(A) N

---

# Read-out: ATP-citrate lyase (ACLY), ACLY (gene 47)
# EXPERIMENT: LTEA_HepaRG_ACLY: Life Technologies and Expression Analysis (LTEA) Assay for ATP-citrate lyase (ACLY) using HepaRG (AID 2283466)
# CONDITION_DESCRIPTION: mRNA level, 48 h; actives raise or lower the signal
The source made the active and inactive calls. How the source made its calls: active means hit-call score of the fitted dose curve at least 0.9, where 1 is the maximum; inactive means score below 0.9.
# output must be one of true = active, false = inactive

MOLECULE	CLASS_LABEL
COCC(=O)N(c1c(C)cccc1C)C(C)C(=O)OC (stereo not drawn)	false

(Q) Hi team, can someone confirm the assay call for COC(=O)NS(=O)(=O)c1ccc(N)cc1 ?
(A) false

---

# Read-out: growth arrest and DNA damage 45 (GADD45G), GADD45G (gene 10912)
# EXPERIMENT: LTEA_HepaRG_GADD45G: Life Technologies and Expression Analysis (LTEA) Assay for growth arrest and DNA damage 45 (GADD45G) using HepaRG (AID 2283499)
# CONDITION_DESCRIPTION: mRNA level, 48 h; actives raise or lower the signal
Calls of active or inactive are those of the source. Rule for the calls: active = hit-call score of the fitted dose curve at least 0.9, where 1 is the maximum; inactive = score below 0.9.
# output must be one of active, inactive

MOLECULE	CLASS_LABEL
COP(=S)(OC)Oc1ccc([N+](=O)[O-])c(C)c1	inactive
CC(C)N1C(=O)N(c2ccccc2)CSC1=NC(C)(C)C	active
Nc1cnn(-c2ccccc2)c(=O)c1Cl	inactive
C=C(C)CN(CC)c1c([N+](=O)[O-])cc(C(F)(F)F)cc1[N+](=O)[O-]	inactive
COc1cc(Cl)c(OC)cc1Cl	inactive

(Q) Hi team, can someone confirm the assay call for CC(C)(C)C(=O)C(Oc1ccc(Cl)cc1)n1cncn1 (stereo unspecified) ?
(A) inactive

(Q) Hi team, can someone confirm the assay call for CCOc1nc(F)cc2nc(S(=O)(=O)Nc3c(Cl)cccc3Cl)nn12 ?
(A) inactive

(Q) Hi team, can someone confirm the assay call for CCOC(=O)C(C)OC(=O)c1cc(Oc2ccc(C(F)(F)F)cc2Cl)ccc1[N+](=O)[O-] (stereo unspecified) ?
(A) active

(Q) Hi team, can someone confirm the assay call for CO/N=C(/C1=NOCCO1)c1ccccc1Oc1ncnc(Oc2ccccc2Cl)c1F ?
(A) active

(Q) Hi team, can someone confirm the assay call for CC1(C)CON(Cc2ccccc2Cl)C1=O ?
(A) inactive

(Q) Hi team, can someone confirm the assay call for COC(=O)c1c(C(F)F)nc(C(F)(F)F)c(C2=NCCS2)c1CC(C)C ?
(A) inactive

---

# EXPERIMENT: CEETOX_H295R_MTT_cell_viability: Viability Assessment in the CeeTox HT-H295R MTT Assay (AID 2283718)
The source made the active and inactive calls. The calls were made as follows: active = hit-call score of the fitted dose curve at least 0.9, where 1 is the maximum; inactive = score below 0.9.
# output must be one of active, inactive

Below, 6 compounds whose answers are already recorded.
COMPOUND	CLASS_LABEL
CC1(C)CCC(=Cc2ccc(Cl)cc2)C1(O)Cn1cncn1 (configuration not stated)	inactive
Clc1nc(Cl)nc(Nc2ccccc2Cl)n1	inactive
CCCN(CC)CC1COC2(CCC(C(C)(C)C)CC2)O1 (configuration not stated)	inactive
COC(=O)c1c(C(F)F)nc(C(F)(F)F)c(C2=NCCS2)c1CC(C)C	active
CCC(C)n1c(=O)[nH]c(C)c(Br)c1=O (configuration not stated)	inactive
CCN(CC)C(=O)C(C)Oc1cccc2ccccc12 (configuration not stated)	inactive

(Q) Hi team, can someone confirm the assay call for N#CN=C1SCCN1Cc1ccc(Cl)nc1 ?
(A) inactive

(Q) Hi team, can someone confirm the assay call for COP(=S)(OC)SCn1nnc2ccccc2c1=O ?
(A) inactive

(Q) Hi team, can someone confirm the assay call for O=C1C2CC=CCC2C(=O)N1SC(Cl)(Cl)Cl (configuration not stated) ?
(A) inactive

(Q) Hi team, can someone confirm the assay call for CC(C)Oc1cccc(NC(=O)c2ccccc2C(F)(F)F)c1 ?
(A) active

(Q) Hi team, can someone confirm the assay call for COP(=S)(OC)Oc1ccc([N+](=O)[O-])c(C)c1 ?
(A) inactive

(Q) Hi team, can someone confirm the assay call for COC(=O)NC(=S)Nc1ccccc1NC(=S)NC(=O)OC ?
(A) inactive
